System: WPMY1-TUBA1B-RELA
Protocol text: lowest phenotypically active concentration; higher = less potent
Condition set: treatment time: 24 h
Where a name gives a salt, the structure may show the parent alone.
Provide the recorded lowest phenotypically active concentration for the entries that follow.
Field format: number, assumed µM, no unit text.

Looking for the measured lowest phenotypically active concentration of `CC(C)(C)c1nc(-c2cccc(NS(=O)(=O)c3c(F)cccc3F)c2F)c(-c2ccnc(N)n2)s1` , can you help?
1

Name the reported lowest phenotypically active concentration value associated with the molecule CC1CNCCN1S(=O)(=O)c1cccc2cnccc12 (stereo unspecified) [H-7 dihydrochloride]
9

Field request: lowest phenotypically active concentration | item: `CC/C(=C(/c1ccccc1)c1ccc(OCCN(C)C)cc1)c1ccccc1`
9

Fill blank: measured lowest phenotypically active concentration of the molecule `Cc1ccc(/C(=C/CN2CCCC2)c2cccc(/C=C/C(=O)O)n2)cc1` is ____.
1

I would be grateful if you could share the reported lowest phenotypically active concentration for `O=C1N=C(NCc2cccs2)S/C1=C\c1ccc2ncccc2c1` .
3

If you can, please state the reported lowest phenotypically active concentration value of CN(C)CC(=O)Nc1ccc2[nH]c(=O)c3ccccc3c2c1 [PJ 34 hydrochloride] .
9

# query: lowest phenotypically active concentration of entry `Nc1ncnc2c1c(-c1cnc3[nH]ccc3c1)nn2C1CCCC1`
1

Need lowest phenotypically active concentration, item C[C@@H](Nc1ncnc2[nH]c(-c3ccc(O)cc3)cc12)c1ccccc1 [PKI 166 hydrochloride]
9

Any idea what its lowest phenotypically active concentration is? The molecule is CC(CN(C)C)CN1c2ccccc2Sc2ccccc21.CC(CN(C)C)CN1c2ccccc2Sc2ccccc21 (stereo unspecified)
9

Please give the measured lowest phenotypically active concentration for this molecule: `CC(C)(C)c1cc(C(=O)/C=C/c2ccc(C(=O)O)cc2)cc(C(C)(C)C)c1`
3

###

Tested on: WPMY1-GM130-SQSTM1
Protocol text: phenotypically active (imaging signature differs from DMSO and reproducible) at any of 0.3-9 uM (binary (1 = active, 0 = inactive)); higher = active
Condition set: treatment time: 24 h
Log the outcome using a class from active, inactive

Please let me know the test result on file for CC(C(=O)O)c1cccc(C(=O)c2ccccc2)c1 (stereo not given) [ketoprofen] .
inactive

So what was the verdict on Nc1nnc(-c2cccc(Cl)c2Cl)c(N)n1 [lamotrigine] in this test?
inactive

Which result was noted for this compound in the test: `COc1ccccc1S(=O)(=O)Nc1ccc2c(c1)CN(C)C(=O)N2`
active

Could you check what this test reported for C=C1CC[C@@H]2[C@](C)(CO)[C@H](O)CC[C@@]2(C)[C@@H]1C/C=C1/C(=O)OC[C@H]1O [Andrographolide] ?
active

So what was the verdict on `COc1ccc2c(NC(=O)Nc3cccc(C(F)(F)F)n3)ccnc2c1` in this test?
active

###

Tested on: A549-ACTB-RAB5A
Protocol text: phenotypically active (imaging signature differs from DMSO and reproducible) at any of 0.3-9 uM (binary (1 = active, 0 = inactive)); higher = active
Condition set: treatment time: 24 h
Counter-ions that a name gives are not always drawn.
Pick one and only one: yes (1) (active), no (0) (inactive)

Answer briefly: the call reported for `CN(C)c1ccc(/C=C2\C(=O)Nc3ccccc32)cc1` in this assay.
yes (1)

Tell me the assay call for `O=C(Nc1ccc(CN2CCOCC2)cc1)c1ccc(-c2cccc(Cl)c2)o1` please.
yes (1)

Hey, what did the test say about CC(C)OC(=O)c1cc2c(OCC(O)CNC(C)(C)C)cccc2[nH]1 (centres undefined) ?
yes (1)

Test call for this compound, please: COc1ccc(CCNCc2ccc(OCc3ccc(Cl)nc3)c(OC)c2)cc1OC [SBE 13 hydrochloride]
yes (1)

Hello, I am checking results. What call was entered for `C[C@H]1COCCN1c1cc(C2(S(=O)(=O)C3CC3)CC2)nc(-c2ccc(NC(=S)NCCO)cc2)n1` ?
yes (1)

Please indicate how the test categorized `COc1cc(-c2cn(C)c(=O)c3cnccc23)c(OC)cc1CN(C)C` .
no (0)

Please let me know the test result on file for O=c1c(-c2ccc(O)cc2)coc2cc(O[C@@H]3O[C@H](CO)[C@@H](O)[C@H](O)[C@H]3O)cc(O)c12 [Genistin] .
yes (1)

// param item: CC[C@]12CCCN3CCc4c(n(c5ccccc45)[C@@](O)(C(=O)OC)C1)[C@@H]32 [Vincamine] ; yields the recorded call
no (0)

What did the test return for `CCCc1nc(C)c2c(C)nc3ccc(OC)nc3n12` ?
no (0)

What call does the record list for CO[C@@]12[C@H](COC(N)=O)C3=C(C(=O)C(C)=C(N)C3=O)N1C[C@@H]1N[C@@H]12 [mitomycin] ?
no (0)

# lookup: test call for O=C(CCCCCN1C(=O)c2cccc3cccc(c23)C1=O)NO [Scriptaid]
yes (1)

Lab log entry: Nc1ncnc2c1nc(Br)n2[C@@H]1O[C@@H]2COP(=O)(O)O[C@H]2[C@H]1O [8-Bromo-cAMP, sodium salt] — outcome as called in the assay?
yes (1)

Identify the outcome logged in this assay for the compound shown: CN(C)CCOC(c1ccc(Cl)cc1)c1ccccn1 (centres undefined) [carbinoxamine]
no (0)

State the result this test recorded for `O=C(O)[C@H]1CCCC[C@H]1C(=O)N1CCc2ccccc2[C@H]1CN1C(=O)c2ccccc2C1=O` .
no (0)

Please let me know the test result on file for `C[C@@H]1CCN(C(=O)CC#N)C[C@@H]1N(C)c1ncnc2[nH]ccc12` .
yes (1)

What call does the record list for O=C(O)CCCC[C@@H]1SC[C@@H]2NC(=O)N[C@@H]21 [Biotin] ?
no (0)

Test call for this compound, please: CCN(CCO)CCCC(C)Nc1ccnc2cc(Cl)ccc12 (centres undefined) [hydroxychloroquine]
yes (1)

Any idea what this test logged for `Cc1cc2sc(NC(=O)Cc3ccccc3)nc2cc1Cl` ?
no (0)

GET /call?item= COc1cc2c(cc1OC)CC(=O)N(CCCN(C)C[C@H]1Cc3cc(OC)c(OC)cc31)CC2 [ivabridine] returns the recorded outcome of this test.
no (0)

###

System: A549-ACTB-RAB5A
Protocol text: phenotypically active (imaging signature differs from DMSO and reproducible) at any of 0.3-9 uM (binary (1 = active, 0 = inactive)); higher = active
Condition set: treatment time: 24 h
Structures can show the parent of a compound that is named as a salt.
Assignment: determine reported phenotypically active for the given compounds.

I would be grateful if you could share the reported phenotypically active for CC(C)[C@H]1CC[C@H](C(=O)N[C@H](Cc2ccccc2)C(=O)O)CC1 [nateglinide] .
0 (inactive)

Please look up its phenotypically active: `COc1ccc([C@@H]2Sc3ccccc3N(CCN(C)C)C(=O)[C@@H]2OC(C)=O)cc1`
0 (inactive)

Bench note: what phenotypically active did `C[C@H]1Oc2cc(cnc2N)-c2c(nn(C)c2C#N)CN(C)C(=O)c2ccc(F)cc21` show?
1 (active)

Reported phenotypically active for NC(=O)c1cccnc1 [Nicotinamide] : what is it?
0 (inactive)

What phenotypically active value was documented for this compound, `COc1cc2c(NC3CCN(C(C)C)CC3)nc(N3CCC(F)(F)CC3)nc2cc1OCCCN1CCCC1` ?
1 (active)

Looking for the measured phenotypically active of CN(C)CCCC1(c2ccc(F)cc2)OCc2cc(C#N)ccc21 (stereo unspecified) , can you help?
0 (inactive)

Reported phenotypically active, compound `CNC(=O)COC(=O)NCCC1CCN(c2cccc(C)n2)CC1` : ____
0 (inactive)

Need phenotypically active, item COc1cc(O)c2c(c1C1CCCN1)OC(c1ccc(O)cc1)CC2 (stereo unspecified) [Vochysine (4 dia/énantio)]
0 (inactive)

Fill blank: measured phenotypically active of the compound `C[C@@H](N)[C@H]1CC[C@H](C(=O)Nc2ccncc2)CC1` is ____.
1 (active)

Entry `Nc1nnc2[nH]c3ccccc3nc1-2` has what phenotypically active?
0 (inactive)

Requested read-out: phenotypically active. Entry: `CN(N=O)C(=O)N[C@@H](C=O)[C@@H](O)[C@H](O)[C@H](O)CO.CN(N=O)C(=O)N[C@H]1C(O)O[C@H](CO)[C@@H](O)[C@@H]1O`
0 (inactive)

Endpoint output: phenotypically active of `COc1cc2ncnc(Nc3ccc(Cl)cc3F)c2cc1OC` . Value?
1 (active)

State the recorded phenotypically active for this entry: `CC(=O)NCC(=O)N1[C@@H]2CC[C@H]1c1ccc(Nc3ncc(C(F)(F)F)c(NC4CCC4)n3)cc12`
1 (active)

Quick one: phenotypically active for `CC(C)[C@@H](C)/C=C/[C@@H](C)[C@H]1CC[C@H]2C3=CC=C4C[C@@H](O)CC[C@]4(C)[C@H]3CC[C@]12C` ?
0 (inactive)

What does the record list as phenotypically active for c1ccc2c(c1)CCCC2C1=NCCN1 (stereo unspecified) [tetrahydrozoline] ?
0 (inactive)

I am curious: what phenotypically active value has been reported for `CCc1cc2c(=O)c(-c3nc4ccccc4s3)coc2c(CN2CCCCC2)c1O` ?
0 (inactive)

Field request: phenotypically active | item: COc1cc2c(cc1OC)C(=O)C(CC1CCN(Cc3ccccc3)CC1)C2 (stereo unspecified)
0 (inactive)

Look up phenotypically active for this compound: Cc1ccc(OCCSc2ncccn2)c(Br)c1 [ZLN 024 hydrochloride]
0 (inactive)

What value of phenotypically active has been reported for the following compound? `CC[C@@H](N)CNc1ccnc(-c2cc(-c3cnn(C)c3)ccc2O)n1`
1 (active)

Requested field: phenotypically active. Item: `O=C(O)[C@H](Cc1c[nH]c2ccccc12)N1C(=O)c2ccccc2C1=O`
0 (inactive)

Recorded phenotypically active of CO/N=C/C1=CCCN(C)C1 [Milameline hydrochloride] , please.
0 (inactive)

Fill blank: measured phenotypically active of the compound CCC(=C(CC)c1ccc(O)cc1)c1ccc(O)cc1 (stereo in doubt) is ____.
0 (inactive)

Given `CC(C)c1c(C(=O)Nc2ccccc2)c(-c2ccccc2)c(-c2ccc(F)cc2)n1CC[C@@H](O)C[C@@H](O)CC(=O)O` , state its recorded phenotypically active.
1 (active)

Look up phenotypically active: `COc1c2c(cc3oc(CO)cc(=O)c13)O[C@@H](C(C)(C)O)C2`
0 (inactive)

Item under review: `CC1=C(/C=C/C(C)=C\C=C\C(C)=C\C(=O)O)C(C)(C)CCC1` . Reported phenotypically active?
1 (active)

Suppose we examine the compound `COc1cc(/C=C/c2ccc(OC)cc2OC)cc(OC)c1` ; what phenotypically active value has been reported?
1 (active)

Data request, read-out phenotypically active, for `O=C(O)[C@]1(Cc2cccc(Nc3nccs3)n2)CC[C@@H](Oc2cccc(Cl)c2F)CC1`
1 (active)

Item under review: `CCC(=O)N1CCN(c2ccc(-n3c(=O)ccc4cnc5ccc(-c6cnc7ccccc7c6)cc5c43)cc2C(F)(F)F)CC1` . Reported phenotypically active?
1 (active)

For C[N+](C)(CCCCCC[N+](C)(C)CCCN1C(=O)c2ccccc2C1=O)CCCN1C(=O)c2ccccc2C1=O [W-84 dibromide] , what is its reported phenotypically active?
0 (inactive)

For the compound shown here, CC(C)(Oc1ccc(C2CC2(Cl)Cl)cc1)C(=O)O (stereo unspecified) [ciprofibrate] , give the reported phenotypically active.
0 (inactive)

Can you look up the measured phenotypically active of `O=c1cc(N2CCOCC2)oc2c1ccc1ccccc12` for me?
0 (inactive)

Fill blank: measured phenotypically active of the compound `CCOC(=O)c1c(CSc2ccccc2)n(C)c2cc(Br)c(O)c(CN(C)C)c12` is ____.
1 (active)

Fill in: phenotypically active of `COc1ccc(-c2ccc3ncc4c(c3c2)n(-c2ccc(N3CCNCC3)c(C(F)(F)F)c2)c(=O)n4C)cn1` is ___
1 (active)

I have this compound here, `O=C(CCCCCCC(=O)Nc1ccc([C@H]2O[C@@H](CSc3nc(-c4ccccc4)c(-c4ccccc4)o3)C[C@@H](c3ccc(CO)cc3)O2)cc1)NO` , and I need its recorded phenotypically active.
1 (active)

Query (compound): `Cc1cc(F)c(Nc2ncnc3cc(OCc4ccccc4)ccc23)cc1O` ; field requested: phenotypically active
1 (active)

Given the compound CCCNC(C)C(=O)Nc1c(C)csc1C(=O)OC (stereo unspecified) , what is its reported phenotypically active?
0 (inactive)

Value source: the supplement of paper PMC7411054
